test system: Staphylococcus aureus; assay: Antimicrobial activity against Staphylococcus aureus MTCC 3160 at 100 ug/mL after 12 hrs by well diffusion method; type: functional
Activity calls are given as the source filed them. The rule behind the calls is not given here.
readout_name: diameter of the inhibition zone (DIZ)

> print(dat)
                         compound.structure    result
1  CCOC(=O)c1cn(Cc2ccc(C#N)cc2)c2cc(C(F)(F)F)ccc2c1=O  inactive
2  C#CCn1cc(C(=O)O)c(=O)c2cccc(C(F)(F)F)c21  inactive
3  N#Cc1ccc(Cn2cc(C(=O)NN)c(=O)c3ccc(C(F)(F)F)cc32)cc1  inactive
4  C#CCn1cc(C(=O)NN)c(=O)c2cccc(C(F)(F)F)c21  inactive
5  N#Cc1ccc(Cn2cc(C(=O)O)c(=O)c3ccc(C(F)(F)F)cc32)cc1  inactive
6  C#CCn1cc(C(=O)OCC)c(=O)c2cccc(C(F)(F)F)c21  inactive
7  CCOC(=O)c1cn(Cc2ccc(Cl)cc2Cl)c2cc(C(F)(F)F)ccc2c1=O  inactive
8  C#CCn1cc(C(=O)NN)c(=O)c2ccc(C(F)(F)F)cc21  inactive
9  CCOC(=O)c1cn(Cc2ccc(C#N)cc2)c2c(C(F)(F)F)cccc2c1=O  inactive

----------
tested on: Candida albicans; experiment: Antimicrobial activity against Candida albicans MTCC 183 at 50 ug/mL after 12 hrs by well diffusion method; format: functional
Calls of active or inactive are those of the source. The rule behind the calls is not given here.
readout_name: diameter of the inhibition zone (DIZ)

> print(dat)
                         compound.structure    result
1  C#CCn1cc(C(=O)NN)c(=O)c2ccc(C(F)(F)F)cc21  inactive
2  CCOC(=O)c1cn(Cc2ccc(C#N)cc2)c2c(C(F)(F)F)cccc2c1=O  inactive
3  CCOC(=O)c1cn(Cc2ccc(Cl)cc2Cl)c2c(C(F)(F)F)cccc2c1=O  inactive
4  N#Cc1ccc(Cn2cc(C(=O)O)c(=O)c3cccc(C(F)(F)F)c32)cc1  inactive
5  C#CCn1cc(C(=O)NN)c(=O)c2cccc(C(F)(F)F)c21  inactive

----------
Here, each record is paired with measured MIC data.
test system: Candida albicans; assay: Antimicrobial activity against Candida albicans MTCC 183 after 12 hrs by well diffusion method; type: functional; details: MTCC 183, 12 h
readout_name: MIC (µg/mL)

> print(dat)
                          compound.structure  readout.name  cmp  recorded.number
 1  NNC(=O)c1cn(Cc2ccc(Cl)cc2Cl)c2cc(C(F)(F)F)ccc2c1=O           MIC    =              100
 2  C#CCn1cc(C(=O)O)c(=O)c2ccc(C(F)(F)F)cc21           MIC    =               25
 3  C#CCn1cc(C(=O)OCC)c(=O)c2ccc(C(F)(F)F)cc21           MIC    =              100
 4  CCOC(=O)c1cn(Cc2ccc(Cl)cc2Cl)c2c(C(F)(F)F)cccc2c1=O           MIC    >              100
 5  O=C(O)c1cn(Cc2ccc(Cl)cc2Cl)c2c(C(F)(F)F)cccc2c1=O           MIC    =               50
 6  CCOC(=O)c1cn(Cc2ccc(C#N)cc2)c2cc(C(F)(F)F)ccc2c1=O           MIC    >              100
 7  N#Cc1ccc(Cn2cc(C(=O)NN)c(=O)c3cccc(C(F)(F)F)c32)cc1           MIC    >              100
 8  C#CCn1cc(C(=O)NN)c(=O)c2ccc(C(F)(F)F)cc21           MIC    >              100
 9  O=C(O)c1cn(Cc2ccc(Cl)cc2Cl)c2cc(C(F)(F)F)ccc2c1=O           MIC    =               50
10  N#Cc1ccc(Cn2cc(C(=O)O)c(=O)c3cccc(C(F)(F)F)c32)cc1           MIC    =              100

----------
tested on: Candida albicans; assay: Antimicrobial activity against Candida albicans MTCC 183 after 12 hrs by well diffusion method; assay type: functional; details: MTCC 183, 12 h
Here, each record is paired with measured MIC data.
readout_name: MIC

> print(dat)
                                   compound       result
1  N#Cc1ccc(Cn2cc(C(=O)NN)c(=O)c3ccc(C(F)(F)F)cc32)cc1  > 100 µg/mL
2  NNC(=O)c1cn(Cc2ccc(Cl)cc2Cl)c2c(C(F)(F)F)cccc2c1=O  > 100 µg/mL
3  OC(Cn1cncn1)(Cn1cncn1)c1ccc(F)cc1F [FLUCONAZOLE]   < 10 µg/mL
4  N#Cc1ccc(Cn2cc(C(=O)O)c(=O)c3ccc(C(F)(F)F)cc32)cc1     50 µg/mL

----------
Here, each record is paired with measured zone of inhibition at 100 µg/mL data.
test system: Staphylococcus aureus; assay: Antimicrobial activity against Staphylococcus aureus MTCC 3160 at 100 ug/mL after 12 hrs by well diffusion method; type: functional; settings: MTCC 3160, 12 h, read-out: DIZ
readout_name: zone of inhibition at 100 µg/mL (mm)

> print(dat)
                                   compound  unit.string  recorded.number
1  CCOC(=O)c1cn(Cc2ccc(Cl)cc2Cl)c2c(C(F)(F)F)cccc2c1=O           mm                9
2  O=C(O)c1cn(Cc2ccc(Cl)cc2Cl)c2cc(C(F)(F)F)ccc2c1=O           mm               10
3  O=C(O)c1cn(C2CC2)c2cc(N3CCNCC3)c(F)cc2c1=O [CIPROFLOXACIN]           mm               13
4  O=C(O)c1cn(Cc2ccc(Cl)cc2Cl)c2c(C(F)(F)F)cccc2c1=O           mm                9
5  C#CCn1cc(C(=O)OCC)c(=O)c2ccc(C(F)(F)F)cc21           mm                9

----------
system: Staphylococcus aureus; experiment: Antimicrobial activity against Staphylococcus aureus MTCC 3160 at 100 ug/mL after 12 hrs by well diffusion method; format: functional; conditions: MTCC 3160, 12 h, read-out: DIZ
readout_name: zone of inhibition at 100 µg/mL (mm)

> print(dat)
                         compound.structure  unit.string  recorded.number
1  N#Cc1ccc(Cn2cc(C(=O)NN)c(=O)c3cccc(C(F)(F)F)c32)cc1           mm                8
2  N#Cc1ccc(Cn2cc(C(=O)O)c(=O)c3cccc(C(F)(F)F)c32)cc1           mm                8
3  NNC(=O)c1cn(Cc2ccc(Cl)cc2Cl)c2c(C(F)(F)F)cccc2c1=O           mm                9
4  NNC(=O)c1cn(Cc2ccc(Cl)cc2Cl)c2cc(C(F)(F)F)ccc2c1=O           mm                8
5  C#CCn1cc(C(=O)O)c(=O)c2ccc(C(F)(F)F)cc21           mm               10
